- assayMethodText: Photophysical measurements (absorption, emission, lifetime, quantum yield) in diluted solutions
- Assay type: physicochemical
- cond: DCM, deaerated; versus Ru(bpy)3^2+ in water (φr = 0.028)
parameter: Φdeaer, quantum yield

{"compound": "C[n+]1nc2[n](n1)[Ir]13([c]4ccccc4-c4cccc[n+]41)([c]1ccccc1-c1cccc[n+]13)[n+]1ccc3ccccc3c1-2 [[Ir(ppy)2(MeTziQn)]^+]", "reported": 0.063}
{"compound": "C[n+]1nc2[n](n1)[Ir]13([c]4ccccc4-c4cccc[n+]41)([c]1ccccc1-c1cccc[n+]13)[n+]1cc(-c3ccc(C#N)cc3)ccc1-2 [[Ir(ppy)2(MeTzPyPhCN)]^+]", "reported": 0.093}
{"compound": "C[n+]1nc2[n](n1)[Ir]13([c]4ccccc4-c4cccc[n+]41)([c]1ccccc1-c1cccc[n+]13)[n+]1cc(C#N)ccc1-2 [[Ir(ppy)2(MeTzPyCN)]^+]", "reported": 0.014}
{"compound": "c1cc[c]2c(c1)-c1cccc[n+]1[Ir]213([c]2ccccc2-c2cccc[n+]21)[n]1nnnc1-c1ccc2ccccc2[n+]13 [[Ir(ppy)2(TzQn)]]", "reported": 0.065}
{"compound": "c1cc[c]2c(c1)-c1cccc[n+]1[Ir]213([c]2ccccc2-c2cccc[n+]21)[n]1nnnc1-c1c2ccccc2cc[n+]13 [[Ir(ppy)2(TziQn)]]", "reported": 0.144}
{"compound": "N#Cc1ccc2[n+](c1)[Ir]13([c]4cc(F)cc(F)c4-c4cccc[n+]41)([c]1cc(F)cc(F)c1-c1cccc[n+]13)[n]1nnnc1-2 [[Ir(F2ppy)2(TzPyCN)]]", "reported": 0.406}
{"compound": "N#Cc1ccc2[n+](c1)[Ir]13([c]4ccccc4-c4cccc[n+]41)([c]1ccccc1-c1cccc[n+]13)[n]1nnnc1-2 [[Ir(ppy)2(TzPyCN)]]", "reported": 0.397}
{"compound": "C[n+]1nc2[n](n1)[Ir]13([c]4cc(F)cc(F)c4-c4cccc[n+]41)([c]1cc(F)cc(F)c1-c1cccc[n+]13)[n+]1cc(C#N)ccc1-2 [[Ir(F2ppy)2(MeTzPyCN)]^+]", "reported": 0.188}
{"compound": "N#Cc1ccc(-c2ccc3[n+](c2)[Ir]24([c]5ccccc5-c5cccc[n+]52)([c]2ccccc2-c2cccc[n+]24)[n]2nnnc2-3)cc1 [[Ir(ppy)2(TzPyPhCN)]]", "reported": 0.149}
{"compound": "C[n+]1nc2[n](n1)[Ir]13([c]4ccccc4-c4cccc[n+]41)([c]1ccccc1-c1cccc[n+]13)[n+]1c-2ccc2ccccc21 [[Ir(ppy)2(MeTzQn)]^+]", "reported": 0.043}
